target: SpCyk3; assay: SPOT peptide array binding signal intensity (averaged, normalized) (arbitrary units (background-subtracted, floor 0; scale differs between SH3 domains)); higher = stronger binding of the SH3 domain to the peptide
VALUE_TYPE: SPOT peptide array binding signal intensity

INSERT INTO assay_data (binder, reading_qualifier, measurement) VALUES
  ('VAPPPLPNRQLPNLD', '=', 5),
  ('RRSKSLPTTPGIRSG', '=', 5),
  ('MPAPPPPPPPPPGAF', '≤', 0),
  ('NPTKSPPPPPSPSTM', '=', 4);
